Recorded values, source paper PMC10667598.

target: VcCBP (Vibrio cholerae, UniProt Q9KUA3)
Sequence (Q9KUA3 28-556 limits assumed): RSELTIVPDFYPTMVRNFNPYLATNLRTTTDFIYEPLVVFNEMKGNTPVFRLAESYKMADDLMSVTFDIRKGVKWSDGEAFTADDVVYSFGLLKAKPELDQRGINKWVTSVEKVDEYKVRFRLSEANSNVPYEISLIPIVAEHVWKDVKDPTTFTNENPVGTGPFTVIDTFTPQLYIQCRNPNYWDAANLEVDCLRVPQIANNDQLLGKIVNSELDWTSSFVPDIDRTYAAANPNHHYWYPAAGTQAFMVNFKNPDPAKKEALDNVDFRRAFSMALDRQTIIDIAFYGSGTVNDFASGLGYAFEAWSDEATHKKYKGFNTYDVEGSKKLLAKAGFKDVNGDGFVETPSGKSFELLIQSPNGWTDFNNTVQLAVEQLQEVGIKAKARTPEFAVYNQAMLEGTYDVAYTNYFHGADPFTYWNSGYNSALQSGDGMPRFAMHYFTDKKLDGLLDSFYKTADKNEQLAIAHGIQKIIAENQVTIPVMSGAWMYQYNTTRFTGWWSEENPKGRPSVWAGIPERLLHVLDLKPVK
measured.property: pKd
Recall that pKd is obtained by taking minus log10 of the concentration measured in molar.

Request: I'm curious: which pKd was measured for CC(=O)N[C@H]1[C@H](O[C@H]2[C@H](O)[C@@H](NC(C)=O)C(O)O[C@@H]2CO)O[C@H](CO)[C@@H](O)[C@@H]1O (stereo partly shown) tested on VcCBP (Vibrio cholerae, UniProt Q9KUA3)?
Result: 6.61
